target: natural firefly luciferase (Fluc) (Photinus pyralis); test: Measurement of emission spectrum with natural firefly luciferase, ATP magnesium salt and luminescent substrate; assay type: biochemical; conditions: 100 μM substrate solution, KPB pH 8.0, Fluc 1 mg/mL, 10 mM ATP magnesium salt, measured for 180 seconds
Sequence (P08659 whole entry): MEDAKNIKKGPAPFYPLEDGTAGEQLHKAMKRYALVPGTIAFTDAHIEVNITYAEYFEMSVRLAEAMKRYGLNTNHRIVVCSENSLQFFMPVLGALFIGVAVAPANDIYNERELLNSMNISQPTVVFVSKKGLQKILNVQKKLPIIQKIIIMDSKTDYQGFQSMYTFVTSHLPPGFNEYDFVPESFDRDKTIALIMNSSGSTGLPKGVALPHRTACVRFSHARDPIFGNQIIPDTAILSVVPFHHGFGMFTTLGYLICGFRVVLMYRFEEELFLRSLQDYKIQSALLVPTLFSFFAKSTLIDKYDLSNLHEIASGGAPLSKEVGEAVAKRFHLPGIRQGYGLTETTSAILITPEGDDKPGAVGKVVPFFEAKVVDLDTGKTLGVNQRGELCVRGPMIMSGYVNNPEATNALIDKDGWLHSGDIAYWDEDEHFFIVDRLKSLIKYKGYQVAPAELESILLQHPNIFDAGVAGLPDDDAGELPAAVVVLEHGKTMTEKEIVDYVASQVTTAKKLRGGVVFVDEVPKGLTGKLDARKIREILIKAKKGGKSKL
assay_endpoint: Maximum emission wavelength for each substrate (λmax) (nm)

1. CN(C)c1ncc(/C=C/c2ccc(C3=N[C@@H](C(=O)O)CS3)nc2)s1 | 710
2. Cn1cccc1/C=C/c1ccc(C2=N[C@@H](C(=O)O)CS2)nc1 | 660
3. CN(C)c1ncc(/C=C/c2ccc(C3=N[C@@H](C(=O)O)CS3)cc2)s1 | 680
4. CN(C)c1cnc(/C=C/c2ccc(C3=N[C@@H](C(=O)O)CS3)nc2)s1 | 760
5. O=C(O)[C@H]1CSC(c2ccc(/C=C/c3ccc[nH]3)cc2)=N1 | 640
6. O=C(O)[C@H]1CSC(c2ccc(/C=C/c3ccc[nH]3)cn2)=N1 | 660
7. Cn1cccc1/C=C/c1ccc(C2=N[C@@H](C(=O)O)CS2)cc1 | 640
8. CN(C)c1cnc(/C=C/c2ccc(C3=N[C@@H](C(=O)O)CS3)cn2)s1 | 730
